Origin of measurements: patent US10858366B2

target: truncated Influenza A/victoria/75 PA(1-209) (Influenza A virus (strain A/Victoria/3/1975 H3N2), UniProt P31343); assay: Endonuclease Inhibition Assay (PA FP Assay); details: fluorescence polarization, fluorescein-labeled probe
experimentalReadout: log10 of IC50 (log10 of the value in nM)

- O=c1ccn2c(c1O)-c1ncc(C(F)F)n1C[C@@H]2C(c1ccccc1)c1ccccc1 [Example 57]: 1.60
- Cc1cccc([C@H](c2ccc(F)cc2)[C@H]2Cn3ccnc3-c3c(O)c(=O)cnn32)c1 [Example 38]: 1.60
- O=c1ccn2c(c1O)-c1ncc(-c3ccccc3)n1C[C@@H]2C(c1ccccc1)c1ccccc1 [Example 53]: 1.78
- O=c1cnn2c(c1O)-c1nccn1C[C@@H]2[C@@H](c1ccccc1)c1ccc(F)cc1 [Example 18]: 1.30
- O=c1ccn2c(c1O)-c1nccn1CN2C(c1ccccc1)c1ccccc1 [Example 6]: 1.60
- O=c1ccn2c(c1O)-c1ncc(-c3cn[nH]c3)n1C[C@@H]2C(c1ccccc1)c1ccccc1 [Example 52]: 0.90
- CC1(C)N(C(c2ccccc2)c2ccccc2)n2ccc(=O)c(O)c2-c2nccn21 [Example 75]: 2.00
- O=c1cnn2c(c1O)-c1nccn1CC2C(c1ccccc1)c1ccccc1 (centres unmarked) [Example 1]: 1.70
